# ASSAY DETAILS: Inhibition of cynomolgus monkey adrenal mitochondrial CYP11B2 using corticosterone as substrate after 60 mins in presence of NADPH by mass spectrometric analysis
READOUT TYPE: pIC50

In [3]: df
Out[3]:
                                    compound  endpoint_value
 0                 Clc1ccc(-c2ccn[nH]2)cc1Cl             5.3
 1                    Clc1ccc(-n2ccnc2)cc1Cl             7.2
 2  CC1CC(=O)c2c(noc2Cc2ccccc2)C1 (configuration not stated)             7.6
 3  CC1CC(=O)c2c(noc2Cc2ccc(C#N)cc2)C1 (configuration not stated)             6.7
 4            CN1C(=O)CCc2cc(-c3cccnc3)ccc21             8.4
 5  CC1(C)CC(=O)c2c(noc2Cc2ccc(C(N)=O)cc2)C1               7
 6       CC1(C)CC(=O)c2c(noc2Cc2ccc(F)cc2)C1             6.8
 7  N#Cc1ccc(Cc2onc3c2C(=O)CC(C2CC2)C3)cc1 (configuration not stated)             6.8
 8          CC1(C)CC(=O)c2c(noc2Cc2ccccc2)C1             7.1
 9  CN(CCO)C(=O)c1ccc(Cc2onc3c2C(=O)CC(C)(C)C3)cc1               7
10          CC1(C)CC(=O)c2c(ncn2Cc2ccccc2)C1               7
11  CC1(C)CC(=O)c2c(noc2Cc2ccc(S(C)(=O)=O)cc2)C1             7.1
12     CC1(C)CC(=O)c2c(noc2Cc2ccc(C#N)cc2)C1             7.1
13                O=C1CCCc2noc(Cc3ccccc3)c21             6.1
14      COc1ccc(Cc2onc3c2C(=O)CC(C)(C)C3)cc1             7.8
15          N#Cc1ccc([C@H]2CCc3cncn32)c(F)c1             7.7
16         CC1(C)CCc2c(noc2Cc2ccc(C#N)cc2)C1             6.8
17  CC1(C)CC(=O)c2c(noc2Cc2ccc(C(=O)N3CC[C@@H](O)C3)cc2)C1               7
18  CN1CCN(C(=O)c2ccc(Cc3onc4c3C(=O)CC(C)(C)C4)cc2)CC1=O             6.8

====

# ASSAY DETAILS: Plasma concentration in ACTH-stimulated cynomolgus monkey at 0.1 mg/kg, iv administered 5 mins before ACTH challenge measured after 3 hrs
# Assay type: ADME, organism-based, Macaca fascicularis
READOUT TYPE: concentration at 3 h (nM)
I only need the number, in nM, no unit after it.

Input: concentration at 3 h lookup needed for CN(CCO)C(=O)c1ccc(Cc2onc3c2C(=O)CC(C)(C)C3)cc1 , thanks.
Output: 78

====

# ASSAY DETAILS: Clearance in cynomolgus monkey hepatocytes relative to hepatic blood flow
# Format: ADME, cell-based, Macaca fascicularis, Hepatocyte
# MEASUREMENT PARAMETERS: read-out: CLH
READOUT TYPE: hepatic extraction ratio

>>> print(df.to_string())
                                chem_smiles              readout_type  endpoint_value
0  CN(CCO)C(=O)c1ccc(Cc2onc3c2C(=O)CC(C)(C)C3)cc1  hepatic extraction ratio            0.34
1  CC1(C)CC(=O)c2c(noc2Cc2ccc(C(N)=O)cc2)C1  hepatic extraction ratio            0.22
2  CC1(C)CC(=O)c2c(noc2Cc2ccc(C(=O)N3CC[C@@H](O)C3)cc2)C1  hepatic extraction ratio            0.28
